# experimentSummary: Hydrolysis in CEM/0 cell extracts
# Type: in vitro ADME
# conditionInfo: human, 37 °C, read-out: CEM/0 cell extracts t1/2 (converted)
I'd appreciate it if you could supply half-life at 0.86 mM values for the items below.

Any idea what its half-life at 0.86 mM is? The compound is CCCCCCCCCCCCCCCCCCP(=O)(OCc1ccc(OC(=O)CCCC)cc1)OP(=O)(O)OP(=O)(O)OP(=O)(O)OC[C@@H]1C=C[C@H](n2cc(C)c(=O)[nH]c2=O)O1 (stereo partly shown) > 8 h

Any idea what its half-life at 0.86 mM is? The compound is CCCCCCCCCC(=O)Oc1ccc(COP(=O)(OCc2ccc(OC(=O)CCCCCCCCC)cc2)OP(=O)(O)OP(=O)(O)OP(=O)(O)OC[C@@H]2C=C[C@H](n3cc(C)c(=O)[nH]c3=O)O2)cc1 1.37 h

Any idea what its half-life at 0.86 mM is? The compound is CCCCCCCCCCCCCCCCOC(=O)Oc1ccc(COP(=O)(OCc2ccc(OC(=O)CCCC)cc2)OP(=O)(O)OP(=O)(O)OP(=O)(O)OC[C@@H]2C=C[C@H](n3cc(C)c(=O)[nH]c3=O)O2)cc1 (stereo partly shown) 2.58 h

Any idea what its half-life at 0.86 mM is? The compound is CCCCCCCCCCCCCCCCCCOP(=O)(OCc1ccc(OC(=O)CCCC)cc1)OP(=O)(O)OP(=O)(O)OP(=O)(O)OC[C@@H]1C=C[C@H](n2cc(C)c(=O)[nH]c2=O)O1 (stereo partly shown) 6.67 h

* * *

# experimentSummary: Hydrolysis in CEM/0 cell extracts
# Assay type: in vitro ADME
# conditionInfo: human, 37 °C, read-out: CEM/0 cell extracts t1/2 (converted)
I'd appreciate it if you could supply half-life at 0.86 mM values for the items below.

Any idea what its half-life at 0.86 mM is? The molecule is CCCCCCCCCCCCCCCCCCP(=O)(OCCCC)OP(=O)(O)OP(=O)(O)OP(=O)(O)OC[C@@H]1C=C[C@H](n2cc(C)c(=O)[nH]c2=O)O1 (some centres unmarked) > 20 h

Any idea what its half-life at 0.86 mM is? The molecule is CCCCCCCCCCCCCCCCCCP(=O)(O)OP(=O)(O)OP(=O)(O)OP(=O)(O)OC[C@@H]1C=C[C@H](n2cc(C)c(=O)[nH]c2=O)O1 > 30 h

Any idea what its half-life at 0.86 mM is? The molecule is CCCCCCCCCCCCCCCCCCOP(=O)(O)OP(=O)(O)OP(=O)(O)OP(=O)(O)OC[C@@H]1C=C[C@H](n2cc(C)c(=O)[nH]c2=O)O1 > 8 h

Any idea what its half-life at 0.86 mM is? The molecule is CCCCCCCCCCCCCCCCCCOP(=O)(OCCCC)OP(=O)(O)OP(=O)(O)OP(=O)(O)OC[C@@H]1C=C[C@H](n2cc(C)c(=O)[nH]c2=O)O1 (some centres unmarked) > 20 h

Any idea what its half-life at 0.86 mM is? The molecule is Cc1cn([C@H]2C=C[C@@H](COP(=O)(O)OP(=O)(O)OP(=O)(O)OP(=O)(O)O)O2)c(=O)[nH]c1=O 0.37 h

* * *

# experimentSummary: Chemical hydrolysis in aqueous buffers (PBS pH 7.3 / 8.0, citrate buffer pH 2.0), RP18-HPLC
# Format: physicochemical
# conditionInfo: phosphate buffered saline; 25 mM PBS, pH 7.3, 37 °C; read-out: PBS pH 7.3 t1/2 (converted)
parameter: half-life at 1.9 mM (days)
Give the value, in units of days, as a plain number.

Any idea what its half-life at 1.9 mM is? The compound is CCCCCCCCCC(=O)Oc1ccc(COP(=O)(OCc2ccc(OC(=O)CCCCCCCCC)cc2)OP(=O)(O)OP(=O)(O)OP(=O)(O)OC[C@@H]2C=C[C@H](n3cc(C)c(=O)[nH]c3=O)O2)cc1 1.08

Any idea what its half-life at 1.9 mM is? The compound is CCCCCCCCCCCCCCCCCCOP(=O)(OCC(CC)CCCC)OP(=O)(O)OP(=O)(O)OP(=O)(O)OC[C@@H]1C=C[C@H](n2cc(C)c(=O)[nH]c2=O)O1 (some centres unmarked) 13.5

Any idea what its half-life at 1.9 mM is? The compound is CCCCCCCCCCCCCCCCCCOP(=O)(OCCCC)OP(=O)(O)OP(=O)(O)OP(=O)(O)OC[C@@H]1C=C[C@H](n2cc(C)c(=O)[nH]c2=O)O1 (some centres unmarked) 10.5

Any idea what its half-life at 1.9 mM is? The compound is CCCCCCCCCCCCCCCCCCOP(=O)(O)OP(=O)(O)OP(=O)(O)OP(=O)(O)OC[C@@H]1C=C[C@H](n2cc(C)c(=O)[nH]c2=O)O1 5.5
